# system: recombinant human IL17a (binding to its receptor IL17R) (Homo sapiens)
# Construct: 177-IR (IL17R/Fc)
# Sequence (Q16552 20-155 limits assumed): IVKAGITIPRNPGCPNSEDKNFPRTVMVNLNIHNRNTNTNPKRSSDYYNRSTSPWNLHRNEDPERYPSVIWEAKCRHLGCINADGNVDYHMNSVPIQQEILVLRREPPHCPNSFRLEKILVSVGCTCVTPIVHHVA
# protocol-summary: IL-17 competition ELISA I (IL17a coated, IL17R/Fc binding)
pIC50: −log10 of the molar value.
# pIC50 listing for each entry below

Consider the reported pIC50 for these compounds:
O=C1CNC(=O)[C@@H](Cc2ccc(NC(=O)[C@H](Cc3ccccc3Cl)NC(=O)Cc3c(F)cc(F)cc3F)cc2)NC(=O)CC2(CCCC2)CC(=O)NCCCCCN1 | > 7.00
O=C1CNC(=O)[C@@H](Cc2ccc(NC(=O)[C@H](Cc3ccccc3Cl)NC(=O)NCc3ccccc3)cc2)NC(=O)CC2(CCCC2)CC(=O)NCCCCCN1 | > 7.00
COC(=O)[C@@H]1CCCCNC(=O)CNC(=O)[C@@H](Cc2ccc(NC(=O)[C@@H](NC(=O)Cc3ccccc3)C3CCCCC3)cc2)NC(=O)CC2(CCCC2)CC(=O)N1 | > 7.00
O=C1CNC(=O)[C@@H](Cc2ccc(NC(=O)[C@H](Cc3ccccc3Cl)NC(=O)c3ccc(F)cc3O)cc2)NC(=O)CC2(CCCC2)CC(=O)NCCCCCN1 | 5.00 to 6.00
CN1CCCCCNC(=O)CC2(CCCC2)CC(=O)N[C@H](Cc2ccc(NC(=O)[C@H](Cc3ccccc3Cl)NC(=O)c3ccc(F)cc3)cc2)C(=O)NCC1=O | 6.00 to 7.00

Could you tell me which pIC50 is on file for `C[C@H]1NC(=O)[C@@H](Cc2ccc(NC(=O)[C@@H](NC(=O)c3cccnc3)C3CCCCC3)cc2)NC(=O)CC2(CCCC2)CC(=O)NCCCCCNC1=O` ?
6.00 to 7.00

Return reported pIC50; argument: `O=C1CNC(=O)[C@@H](Cc2ccc(NC(=O)[C@@H](NC(=O)Cc3cccc(O)c3)C3CCCCC3)cc2)NC(=O)CC2(CCCC2)CC(=O)NCCCCCN1`
6.00 to 7.00

Look up pIC50 for this compound: `CN1CCCCCNC(=O)CNC(=O)[C@@H](Cc2ccc(NC(=O)[C@@H](NC(=O)Cc3ccccc3)C3CCCCC3)cc2)NC(=O)CC2(CCCC2)CC1=O`
6.00 to 7.00

Request the reported pIC50 associated with `O=C1CCCCCNC(=O)CNC(=O)[C@@H](Cc2ccc(NC(=O)[C@H](Cc3ccccc3Cl)NC(=O)Cc3ccccc3)cc2)NC(=O)CC2(CCCCC2)CN1`
6.00 to 7.00

Please report the recorded pIC50 for `C[C@H]1NC(=O)[C@@H](Cc2ccc(NC(=O)[C@@H](NC(=O)Cc3ccccc3)C3CCCCC3)cc2)NC(=O)CC2(CCCC2)CC(=O)NCCCCCNC1=O` .
6.00 to 7.00

Given the compound `O=C1CC2(CCCC2)CC(=O)N[C@H](Cc2ccc(NC(=O)[C@@H](NC(=O)Cc3ccc(CO)cc3)C3CCCCC3)cc2)C(=O)NCCCCCCCCCN1` , what is its reported pIC50?
5.00 to 6.00

What value of pIC50 has been recorded for this entry: `O=C1CNC(=O)[C@@H](Cc2ccc(NC(=O)[C@@H](NC(=O)Cc3ccc(F)cc3F)C3CCCCC3)cc2)NC(=O)CC2(CCCC2)CC(=O)NCCCCCN1`
> 7.00

Report pIC50 for `O=C1CNC(=O)[C@@H](Cc2ccc(NC(=O)[C@H](Cc3ccc(Cl)cc3)NC(=O)Cc3ccccc3)cc2)NC(=O)CC2(CCCC2)CC(=O)NCCCCCN1` please.
> 7.00

Quick one: pIC50 of `CN1CCCCCNC(=O)CNC(=O)[C@@H](Cc2ccc(NC(=O)[C@H](Cc3ccccc3Cl)NC(=O)Cc3ccccc3)cc2)NC(=O)CC2(CCCC2)CC1=O` ?
> 7.00

// lookup pIC50 for `O=C1CNC(=O)[C@@H](Cc2ccc(NC(=O)[C@H](Cc3ccccc3Cl)NC(=O)c3ccccn3)cc2)NC(=O)CC2(CCCC2)CC(=O)NCCCCCN1`
6.00 to 7.00

Give its pIC50 value. Item: `O=C1CNC(=O)[C@@H](Cc2ccc(NC(=O)[C@H](Cc3cscn3)NC(=O)Cc3ccccc3)cc2)NC(=O)CC2(CCCC2)CC(=O)NCCCCCN1`
5.00 to 6.00
